Reference source for all entries: patent US11197904B2

# System: Porphyromonas gingivalis (P.g.)
# assay-remarks: microbe, parasite or virus in culture
# condition-set: read-out: IC50, 50% inhibition on bacterial proliferation, P. g.
Exam item: assign y to entries whose IC50 is below 50 µg/mL and n to entries at or above 50 µg/mL. Note that a value of exactly 50 µg/mL receives n.

State whether 50 µg/mL exceeds IC50 recorded for COc1ccc(CCN(C)CCCC(C#N)(c2ccc(OC)c(OC)c2)C(C)C)cc1OC (stereo not shown) [Verapamil] .
n

State whether 50 µg/mL exceeds IC50 recorded for NC[C@H]1O[C@H](O[C@H]2[C@H](O)[C@@H](O[C@H]3O[C@H](CO)[C@@H](O)[C@H](N)[C@H]3O)[C@H](N)C[C@@H]2N)[C@H](N)C[C@@H]1O [Tobramycin] .
y

State whether 50 µg/mL exceeds IC50 recorded for C[C@@H]1CC[C@@]2(OC1)O[C@H]1[C@@H](O)[C@H]3[C@@H]4CC[C@H]5C[C@@H](O[C@@H]6O[C@H](CO)[C@H](O[C@@H]7O[C@H](CO)[C@@H](O)[C@H](O[C@@H]8OC[C@@H](O)[C@H](O)[C@H]8O)[C@H]7O[C@@H]7O[C@H](CO)[C@H](O)[C@H](O[C@@H]8O[C@H](CO)[C@@H](O)[C@H](O)[C@H]8O)[C@H]7O)[C@H](O)[C@H]6O)[C@H](O)C[C@]5(C)[C@H]4CC[C@]3(C)[C@H]1[C@@H]2C [Digitonin] .
n

State whether 50 µg/mL exceeds IC50 recorded for Cc1cc(N)c2ccccc2[n+]1CCCCCCCCCC[n+]1c(C)cc(N)c2ccccc21 [Dequalinium] .
y

State whether 50 µg/mL exceeds IC50 recorded for NNC(=O)c1ccncc1 [Isoniazid] .
n

Next:
State whether 50 µg/mL exceeds IC50 recorded for CC(O)(P(=O)(O)O)P(=O)(O)O [Etidronate] .
y

State whether 50 µg/mL exceeds IC50 recorded for [H]/N=C(/N)N[C@H]1[C@H](O)[C@@H](O)[C@H](O[C@@H]2O[C@@H](C)[C@](O)(C=O)[C@H]2O[C@@H]2O[C@@H](CO)[C@H](O)[C@@H](O)[C@@H]2NC)[C@@H](N/C(N)=N\[H])[C@@H]1O [Streptomycin] .
y

====

Assign IC50 to each entry below.
# Test system: Porphyromonas gingivalis (P.g.)
# assay-remarks: microbe, parasite or virus in culture
# condition-set: read-out: IC50, 50% inhibition on bacterial proliferation, P. g.

Identify IC50 associated with the compound O[C@H](CS)[C@H](O)CS (racemic)
> 300 µg/mL

Identify IC50 associated with the compound C=C[C@H]1C[N@@]2CC[C@H]1C[C@H]2[C@H](O)c1ccnc2ccc(OC)cc12
43 µg/mL

Identify IC50 associated with the compound COc1cc(/C=C/C(=O)CC(=O)/C=C/c2ccc(O)c(OC)c2)ccc1O
126 µg/mL

Identify IC50 associated with the compound CC(Cc1ccc(O)c(O)c1)C(C)Cc1ccc(O)c(O)c1 (stereo not drawn) [Nordihydro-guaiaretic acid]
< 30 µg/mL

Identify IC50 associated with the compound CN(C)C(=N)N=C(N)N
639 µg/mL

Here's the next entry for you.
Identify IC50 associated with the compound CN(C)CCCN1c2ccccc2Sc2ccc(Cl)cc21
5 µg/mL

====

# System: Staphylococcus aureus (S.a)
# condition-set: read-out: IC50 of single drug; Table 14, S. a.; drug alone
metric-name: IC50 (µM)
Numbers only, in µM.

Identify IC50 associated with the molecule [Cl][Ag]
56
